Listed here: items and their measured growth.
# Test system: UACC-62 melanoma
# Test details: NCI-60 one-dose screen, 48 h (100 = growth as untreated, 0 = no growth, -100 = all killed)
# Assay setup: 10 µM unless noted
The panel holds about 83,000 compounds, 20% with a hit somewhere; the sample as a whole holds those more often.
Entry rule: numbers only, all in %.

{"Molecule": "O=S(=O)(Nc1cc(Cl)c(F)c(Cl)c1)c1ccc(-c2cnc(C3CC3)o2)cc1", "Unit name": "%", "growth": 42.6}
{"Molecule": "O=c1c2c(O)cccc2oc2c3c(cc(O)c12)O[C@H]1OC=C[C@@H]31", "Unit name": "%", "growth": 81}
{"Molecule": "COc1cc(/C=N/n2cnc3oc(-c4ccccc4)cc3c2=N)cc(CN2CCN(C)CC2)c1O", "Unit name": "%", "growth": 102}

Q. Please give measured growth of the following entry: COc1ccc(NC(=O)Cn2cc(CN3C(=O)c4ccc([N+](=O)[O-])cc4C3=O)nn2)cc1
A. 91.3

Q. Please give measured growth of the following entry: COc1cc([C@H]2OC[C@H]3[C@@H]2CO[C@@H]3c2ccc(O)c(OC)c2)ccc1O
A. 91

Q. Please give measured growth of the following entry: Oc1ccc(CSc2nnc(-c3ccccc3)n2-c2ccccc2)c2cccnc12
A. -34.1

Q. Please give measured growth of the following entry: NS(=O)(=O)c1ccc(-n2cc(CC=O)nn2)cc1
A. 95.7

Q. Please give measured growth of the following entry: CCN(CC)CCCC(C)NCC(=O)NC(c1ccc2c(c1)OCO2)c1cc(Cl)c2cccnc2c1O (stereo not given)
A. -17.6

Q. Please give measured growth of the following entry: COc1cnc2c(c1)C(=O)c1c-2n(CCCNCC2CC2)c(=O)c2cc(F)ccc12
A. -56.2

Q. Please give measured growth of the following entry: ClC(Cl)c1nc(-c2cccs2)n2nc(-c3ccccc3)cc2n1
A. 23.6

====

# System: MCF7 breast
# Test details: NCI-60 one-dose screen, 48 h
# Assay setup: 10 µM unless noted
The panel holds about 83,000 compounds, 20% with a hit somewhere; the sample as a whole holds those more often. Activity calls are given as the source filed them. How the source made its calls: active means growth percent below 10; inactive means the rest.
Thanks in advance; please answer with one of these: active, inactive

{"Molecule": "O=C(NNc1nc2cc(F)cc(F)c2n2cccc12)c1ncccn1", "Label value": "active"}
{"Molecule": "CCOC(=O)CC(=O)CSC1=NC2C(NN1)N(C)C(=O)N2C (stereo not drawn)", "Label value": "inactive"}
{"Molecule": "O=S(=O)(Nc1ccc(-c2nc(-c3cccc(O)c3)c(-c3ccnc(Br)c3)[nH]2)cc1)c1ccccc1", "Label value": "active"}
{"Molecule": "COCCC[C@H]1O[C@@](O)([C@H](C)[C@@H]2CC(OC)C(O)/C=C(C)/C=C(C)/C=C(\\C)C(OC3O[C@@H](C)[C@H](O)C(O)[C@@H]3O)C(C)/C=C(C)/C=C(OC)/C=C(\\C)C(=O)O2)C(OC)C(O)[C@]1(C)O[C@H]1C[C@@H](O)[C@H](O[C@H]2C[C@](C)(O)[C@H](O)C(C)O2)C(C)O1 (stereo partly drawn)", "Label value": "inactive"}
{"Molecule": "CCNCCCn1c2c(c3cc(OC)c(OC)cc3c1=O)C(=O)c1cc(OC)cnc1-2", "Label value": "active"}
{"Molecule": "CC(=O)Oc1ccc(CCN2C(=O)CSC2=S)cc1", "Label value": "inactive"}
{"Molecule": "Cc1cc(O)c(=O)cc2c1C[C@H]1CC(C)(C)/C=C/C[C@]3(C)Oc4cc(=O)c(O)cc(C)c4C[C@H]3C[C@H](O)[C@@]1(C)O2", "Label value": "active"}

Now examine the next entry.
Q. Give the logged outcome of this assay for the following molecule: C#CCOc1ccc(/C=N/Nc2nc(-c3cc(Cl)ccc3Cl)cs2)cc1
A. active

====

# System: T-47D breast
# Test details: NCI-60 one-dose screen, 48 h (100 = growth as untreated, 0 = no growth, -100 = all killed)
# Assay setup: 10 µM unless noted
Compounds without any hit were thinned out: in the full panel of roughly 83,000, 20% have a hit.
Reported property: growth (%)
Entry rule: numbers only, all in %.

Answered cases to consult:
{"Compound": "O=[N+]([O-])c1ccc(-c2nnc(SCc3ccc(O)c4ncccc34)n2-c2ccccc2)cc1", "Target": "T-47D breast", "growth / %": 24.1}
{"Compound": "CCCCSc1nnc(-c2ccc(-c3ccc(Cl)cc3)nc2C)o1", "Target": "T-47D breast", "growth / %": 92.8}
{"Compound": "C#C[C@]1(O)CC[C@H]2[C@@H]3CC=C4c5sc(-c6ccccn6)nc5CC[C@]4(C)[C@H]3CC[C@@]21C", "Target": "T-47D breast", "growth / %": 85.3}
{"Compound": "CCC(=O)Nc1cc(Nc2cc(NC3CC3)n3ncc(C#N)c3n2)ccc1C", "Target": "T-47D breast", "growth / %": 6.41}

Q. Please give measured growth of the following entry: NS(=O)(=O)c1ccc(-n2cc(CC=O)nn2)cc1
A. 102

Q. Please give measured growth of the following entry: Cc1ccc(-c2cc(-c3ccc(N(C)C)cc3)n3c(n2)nc2ccccc23)cc1
A. 6.32

Q. Please give measured growth of the following entry: O=C(Nc1ccccc1)Nc1nc2ccc([N+](=O)[O-])cc2s1
A. -14.3

Q. Please give measured growth of the following entry: Oc1ccc(CSc2nnc(-c3ccc(Br)cc3)o2)c2cccnc12
A. 28.5

Q. Please give measured growth of the following entry: CCN1C(=O)N(CC)C2SC(N/N=C/c3ccc(F)cc3)=NC21 (stereo unspecified)
A. 64.8

Q. Please give measured growth of the following entry: C#CCOc1ccc(/C=N/Nc2nc(-c3cc(Cl)ccc3Cl)cs2)cc1
A. 37.4

Q. Please give measured growth of the following entry: COc1ccc(CCN2C(=O)/C(=C/c3nc(CO)cs3)SC2=S)cc1
A. 76.4

Q. Please give measured growth of the following entry: O=C1C[C@@H](c2ccccc2)Oc2c(Cc3ccccc3O)c(O)c(Cc3cc(Cc4cc(Cc5ccccc5O)ccc4O)ccc3O)c(O)c21
A. 94

Q. Please give measured growth of the following entry: Cn1cc(-c2nn3cc(-c4cccnc4)nc3s2)c2cc(F)ccc21
A. 65

Q. Please give measured growth of the following entry: C=C(C)[C@@H]1CC[C@]2(C)[C@H](CC=C3[C@@H]4CC(C)(C)CC[C@]4(C(=O)NCC#CCN4CCN(C)CC4)CC[C@]32C)[C@@]1(C)CCC#N
A. 61.7

Q. Please give measured growth of the following entry: CCCC(=O)NC(c1cccnc1)c1cc(C(C)=O)c2cccnc2c1O (stereo unspecified)
A. 41.7

Q. Please give measured growth of the following entry: COc1cc2cc(Oc3ccc(NC(=O)c4cccc(C(F)(F)F)c4)cc3)c(C)nc2cc1OCCN(C)C
A. 91.2

Q. Please give measured growth of the following entry: CCc1ccc(NC(=O)N[C@@H](Cc2cccc(C)c2)C(=O)N[C@@H]2C(=O)N3CCC[C@H]3C(=O)N3CCCC[C@H]3C(=O)N[C@@H](CO)C(=O)N3C[C@H](C)C[C@H]3C(=O)O[C@H]2C)c(F)c1
A. 27.4

Q. Please give measured growth of the following entry: C=CCn1c(SCC(=O)Nc2cccc(C(=O)/C=C/c3cccc([N+](=O)[O-])c3)c2)nc2ccccc2c1=O
A. 79.1

Q. Please give measured growth of the following entry: COc1ccc(-c2nc3cc(Cl)c(Cl)cc3n2CC(=O)N=Nc2c(O)[nH]c3ccc(Cl)cc23)cc1
A. -14.4

====

# Tested on: NCI-H522 lung
# Test details: NCI-60 one-dose screen, 48 h (100 = growth as untreated, 0 = no growth, -100 = all killed)
# Assay setup: 10 µM unless noted
The panel holds about 83,000 compounds, 20% with a hit somewhere; the sample as a whole holds those more often.
Threshold 40%: growth strictly smaller gives satisfied, otherwise not satisfied.

{"Molecule": "O=C1c2c(c3c4cccnc4[nH]c3c3ccc4ccccc4c23)C(=O)N1CCN1CCOCC1", "Label value": "not satisfied"}
{"Molecule": "CCCCCCNC(=O)Oc1ccc(/C(=C(/C)c2ccc(OC)cc2)c2ccc(OCCN3CCCC3)cc2)cc1", "Label value": "not satisfied"}
{"Molecule": "N#C/C(=C\\c1ccc2ccccc2c1)C(=O)Nc1sc2c(c1C#N)CCC2", "Label value": "not satisfied"}

Q. Lab note: growth threshold 40%. Does this molecule come in strictly under it? Cn1nc(Nc2ccccc2)c(C(=O)NN)c1N
A. not satisfied

Q. Lab note: growth threshold 40%. Does this molecule come in strictly under it? Cc1ccc(-c2cc(-c3ccc(N(C)C)cc3)n3c(n2)nc2ccccc23)cc1
A. satisfied

Q. Lab note: growth threshold 40%. Does this molecule come in strictly under it? COc1cc(/C=N/n2cnc3oc(-c4ccccc4)cc3c2=N)cc(CN2CCCC2)c1O
A. not satisfied
